Tested on: Fibroblast
Test: Incucyte cell viability with human fibroblast; note: unitless GR value; below 1 slowed growth and below 0 cell loss
Type: toxicity, cell-based
Settings: 6 h, 10 µM, compound concentration 10 uM, replicate number 2
value-kind: Growth Rate
Give the value as a plain number.

Sample answers from the record:
CN1CCCN(C(=O)c2cccc(-c3ccc(/C=C4/C(=O)Nc5ccc(Cl)cc54)o3)c2)CC1 | -0.94
Cc1[nH]c2c(N3CCCCC3)c(-c3ccccc3)nn2c(=O)c1-c1ccc(O)cc1 | 0.19
CC1(C)CCC[C@]2(C)[C@@H](C=O)C(C=O)=CC[C@@H]12 | -1
S=c1[nH]nc(-c2cccs2)n1-c1ccccc1 | -0.3
COc1ccc(OC(=O)N(CC(=O)O)Cc2ccc(OCCc3nc(-c4ccccc4)oc3C)cc2)cc1 | 0.43
O=C(O)c1ccc(-c2c[nH]c3ncc(-c4ccccc4)cc23)cc1C1CCCC1 | -0.95
CCN1/C(=C/C(C)=O)Sc2ccc(OC(C)=O)cc21 | -0.62
Cc1ccc(C(=O)Nc2cc(N3CCN(C)CC3)cc(C(F)(F)F)c2)cc1-n1cc(-c2cnn(C)c2C)nn1.Cl | -0.05

**Q:** # query: Growth Rate of entry CCC(=O)O[C@@H](OP(=O)(CCCCc1ccccc1)CC(=O)N1C[C@H](C2CCCCC2)C[C@H]1C(=O)[O-])C(C)C.[Na+] (some centres not stated)
**A:** 0.94

**Q:** # query: Growth Rate of entry Cn1cnc(Cn2ccc3ccc(CNCc4[nH]c5ccccc5c4[C@H]4NC(=O)c5ccc(O)cc54)cc32)c1
**A:** 0.48

**Q:** # query: Growth Rate of entry C[C@@H]1CC[C@@]2(OC1)O[C@H]1[C@@H](O)[C@H]3[C@@H]4CC[C@H]5C[C@@H](O[C@@H]6O[C@H](CO)[C@H](O[C@@H]7O[C@H](CO)C(O)[C@H](O[C@@H]8OC[C@@H](O)[C@H](O)[C@H]8O)[C@H]7O[C@@H]7O[C@H](CO)[C@H](O)[C@H](O[C@@H]8O[C@H](CO)[C@@H](O)[C@H](O)[C@H]8O)[C@H]7O)[C@H](O)[C@H]6O)[C@H](O)C[C@]5(C)[C@H]4CC[C@]3(C)[C@H]1[C@@H]2C (some centres not stated)
**A:** 0.68

**Q:** # query: Growth Rate of entry C=C1/C(=C\C=C2/CCC[C@]3(C)[C@@H]([C@H](C)CCCC(C)(C)O)CC[C@@H]23)C[C@@H](O)C[C@@H]1O
**A:** 0.1

Reference for the values: ChEMBL document CHEMBL5303304
